Sourced from PubChem BioAssay (NCI)

Consider the following compounds; for each one, report its TGI.
system: PC-3 prostate; experiment: NCI tumour cell line growth inhibition, 48 h

**Q:** Lab note: need TGI for O=C1CC(c2ccc(Cl)cc2)Oc2ccccc21 (centres undefined) on PC-3 prostate, anyone have it?
**A:** 52.5 µM

**Q:** What about `CN(C)CCN1C(=O)c2cccc3cccc(c23)C1=O` ?
**A:** > 25 µM

**Q:** What about `CCOP(=O)(OCC)/C(C#N)=C/c1ccnc2ccccc12` ?
**A:** 35.4 µM

**Q:** What about `COc1cccc(-c2nc(-c3cnccn3)n(COCCO)n2)c1` ?
**A:** > 100 µM

**Q:** What about CN1C(=O)C2C=C3CCCCC3=CC2N(C)C1=O (centres undefined) ?
**A:** > 100 µM

**Q:** What about `CN(C)Cc1cc(C(C)(C)C)cc(C2CCCCC2)c1O` ?
**A:** 26.4 µM

**Q:** What about `COc1ccccc1CNC(=O)[C@H](Cc1ccc(O)cn1)NC(C)=O` ?
**A:** > 100 µM

**Q:** What about `Cc1cccc(Nc2cnc(N)nc2N)c1` ?
**A:** > 100 µM

**Q:** What about `CC(C)(C)OC(=O)N(CCCCNCc1ccc2ccccc2c1)CCCNCc1ccc2ccccc2c1` ?
**A:** 4.06 µM

**Q:** What about `CSc1cccc(NC(=O)OC2CCCCCCCCCCC2)c1` ?
**A:** > 100 µM

**Q:** What about `O=C(NNC(=O)c1ccccc1O)c1ccc(O)cc1` ?
**A:** > 100 µM

**Q:** What about `COc1cc(C(=O)Oc2c(C#N)sc3c2c(=O)n(-c2ccccc2)c(=S)n3-c2ccccc2)cc(OC)c1OC` ?
**A:** > 100 µM

**Q:** What about `CN1C(Cl)=NS(=O)(=O)c2ccccc21` ?
**A:** > 100 µM

**Q:** What about `CCCNc1nc2ccccc2c2c1S(=O)(=O)c1ccc(Cl)cc1C2=O` ?
**A:** > 50 µM

**Q:** What about `O=[N+]([O-])c1ccc(S(=O)(=O)Cc2ccccc2)c2nonc12` ?
**A:** 34.6 µM

**Q:** What about `CCCC[C@H]1CCN2C[C@@H](O)[C@@H](O)[C@H]2[C@@H]1O` ?
**A:** > 100 µM

**Q:** What about `COc1ccc(Nc2cc(C)nc(N3CCN(c4ccnc5cc(Cl)ccc45)CC3)n2)cc1` ?
**A:** > 100 µM

**Q:** What about `Cc1nc(Nc2nc3ccccc3o2)nc(-c2cccc([N+](=O)[O-])c2)c1C(=O)Nc1ccc(F)c(Cl)c1` ?
**A:** 11.5 µM

**Q:** What about `CCCCNC(=S)/N=C/c1c(O)c2ccccc2[nH]c1=O` ?
**A:** > 10 µM

**Q:** What about `COc1ccc(OC)c(Nc2nc(-c3c(C)nc4sccn34)cs2)c1` ?
**A:** > 100 µM

**Q:** What about O=C1OC(CN2CCOCC2)CN1/N=C/c1ccc([N+](=O)[O-])o1 (centres undefined) ?
**A:** > 100 µM

**Q:** What about `O=C(/C=C(\O)c1ccccc1)c1cc(-c2ccccc2)n(-c2ccccc2)n1` ?
**A:** > 100 µM

**Q:** What about CC(Br)C(=O)Nc1ccc(C(=O)O)c(O)c1 (centres undefined) ?
**A:** > 100 µM

**Q:** What about `Cn1cnc([N+](=O)[O-])c1Sc1ncn[nH]1` ?
**A:** > 100 µM
